Listed here are molecules together with their documented growth.
System: MDA-MB-468 breast
Experiment: NCI-60 one-dose screen, 48 h (100 = growth as untreated, 0 = no growth, -100 = all killed)
Conditions: 10 µM unless noted
About 83,000 compounds went through this panel and 20% of them were active in at least one assay; those are over-represented in the sample as a whole.
Write it as a number; the unit % goes unstated.

{"columns": ["molecule", "growth / %"],
 "data": [
  ["O=C(Nc1cccc(-n2cc(-c3ccncc3)c(-c3cc(O)cc(Cl)c3)n2)c1)Nc1ccc(Cl)c(C(F)(F)F)c1", 5.22]
]}

Task: Sample "CC1(COc2ccc3ncc(C#Cc4cncc(C(=O)Nc5cccc(C(F)(F)F)c5)c4)n3n2)COC1" — what was its growth?
Result: 102

Task: Sample "O=C(Nc1ccc(Oc2ccc(Nc3nc4ccccc4s3)cc2)cc1)Nc1ccc(Cl)c(C(F)(F)F)c1" — what was its growth?
Result: 4.56

Task: Sample COc1ccc(NC(=O)C2CC3C=CC2C3)c([N+](=O)[O-])c1 (stereo not given) — what was its growth?
Result: 93.1

Task: Sample "CCCCOc1nc2ccc(Cl)cc2cc1/C=C/C(=O)/C=C/c1ccc(OC)cc1" — what was its growth?
Result: 113

Task: Sample "COc1ccc([C@@H]2C(=O)N(c3cc(OC)c(OC)c(OC)c3)[C@H]2c2ccc(OC)c(O)c2)cc1" — what was its growth?
Result: -4.45

Task: Sample "Cc1nc(Nc2ccc(F)c(Cl)c2)sc1C(=O)O" — what was its growth?
Result: -1.67

Task: Sample CC1(C)C2CC1C1(/C=N/NC(N)=S)C(C2)C(C#N)(C#N)C1(C#N)C#N (stereo not given) — what was its growth?
Result: 76.6

Task: Sample "CC(=O)c1ccc2c(c1)c1ccccc1n2C" — what was its growth?
Result: 79.5

Task: Sample "CCCCCCCC(=O)SCC/C=C/[C@@H]1CC(=O)NCc2cccc(n2)C2=N[C@@](C)(CS2)C(=O)N[C@@H](C(C)C)C(=O)O1" — what was its growth?
Result: 12.4

---

Listed here are compounds together with their documented growth.
Test system: A549/ATCC NSCLC
Assay: NCI-60 one-dose screen, 48 h (100 = growth as untreated, 0 = no growth, -100 = all killed)
Settings: 10 µM
This is part of a sample that, as a whole, favours compounds with a hit. Of some 83,000 tested, about 20% had one in any assay. The source made the active and inactive calls. Rule for the calls: active = growth percent below 10; inactive = the rest.

Task: Sample "COc1ccc(Cn2cc(C#N)c(N)c2C(C)=O)c(OC)c1" — what was its growth?
Result: 103% (inactive)

Task: Sample "O=C(CSc1nc2ccccc2c(=O)n1-c1ccc(Cl)cc1)Nc1ccc(-c2nc3ccc([N+](=O)[O-])cc3[nH]2)cc1" — what was its growth?
Result: 50.2% (inactive)

Task: Sample "O=C1S/C(=C\c2ccc([N+](=O)[O-])cc2)C(=O)N1CCN1CCCCC1" — what was its growth?
Result: 110% (inactive)

Task: Sample "O=C1NC(=S)S/C1=C\c1cn(-c2ccccc2)nc1-c1ccc([N+](=O)[O-])cc1" — what was its growth?
Result: 15.2% (inactive)

Task: Sample "COc1ccc2[nH]cc(-c3nc(N)nnc3-c3cn(C)c4ncc(Br)cc34)c2c1" — what was its growth?
Result: 17.7% (inactive)

Task: Sample CCOC(=O)c1ccc(NC(=O)CSC(CC(=O)c2sc(Nc3ccccn3)nc2C)c2ccccc2F)cc1 (centres undefined) — what was its growth?
Result: 1.12% (active)

Task: Sample "Cn1cc(/C=C(/SS/C(=C/c2cn(C)c3cccc(C(=O)O)c23)C(=O)O)C(=O)O)c2c(C(=O)O)cccc21" — what was its growth?
Result: 99.6% (inactive)

Task: Sample CC1[C@H]2[C@H](C[C@H]3[C@@H]4CC=C5c6sc(Nc7cccc(Cl)n7)nc6CC[C@]5(C)[C@H]4CC[C@@]32C)O[C@]12CC[C@@H](C)CO2 (some centres undefined) — what was its growth?
Result: 96.1% (inactive)

Task: Sample "COc1cc2oc(-c3cccc(C(=O)Nc4ccc(Cl)cc4)c3)cc(=O)c2c(OCCNC(=O)[C@@H](N)CO)c1OC" — what was its growth?
Result: 102% (inactive)

These entries and their values trace back to PubChem BioAssay (NCI).
